# Tested target: FAAH (Rattus norvegicus)
# Construct: Preparation of Rat Brain Membranes Preparations (FAAH Enzyme Solution); from tissue; host or cells: rat cerebrum (brain membrane preparation)
# Sequence (P97612 1-579): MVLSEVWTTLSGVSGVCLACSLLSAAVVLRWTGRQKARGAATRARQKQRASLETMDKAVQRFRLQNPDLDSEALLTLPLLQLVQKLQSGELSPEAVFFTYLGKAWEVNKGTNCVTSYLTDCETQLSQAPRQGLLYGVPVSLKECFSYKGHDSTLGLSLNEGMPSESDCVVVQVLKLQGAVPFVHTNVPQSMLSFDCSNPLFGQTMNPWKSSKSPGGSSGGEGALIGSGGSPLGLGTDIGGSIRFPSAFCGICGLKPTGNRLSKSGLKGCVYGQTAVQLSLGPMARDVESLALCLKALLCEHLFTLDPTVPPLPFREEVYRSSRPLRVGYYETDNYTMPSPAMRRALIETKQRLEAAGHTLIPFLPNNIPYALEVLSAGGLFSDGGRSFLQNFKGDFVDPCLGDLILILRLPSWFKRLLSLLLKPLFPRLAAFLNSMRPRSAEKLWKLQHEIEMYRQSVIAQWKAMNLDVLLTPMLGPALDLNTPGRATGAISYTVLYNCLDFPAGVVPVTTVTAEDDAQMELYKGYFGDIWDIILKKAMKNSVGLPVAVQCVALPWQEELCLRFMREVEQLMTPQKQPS
# Experimental details: Determination of FAAH inhibitory activity in rat (rat brain membrane preparations, [3H]-anandamide hydrolysis)
# Format: biochemical
# Assay setup: rat brain membrane preparations; 100 nM test substance; read-out: FAAH Inhibition, Inhibition Rate at 100 nM
Measured attribute: inhibition at 0.1 µM (%)

>>> recorded_result("CCN(C)C(=O)n1c(=O)n(C)c2nc(Cc3ccc(F)cc3)ncc21 [Example 279]")
98
>>> recorded_result("O=C(N1CCCC1)n1c(=O)n(CCN2CCCC2)c2nc(-c3ccccc3)ncc21 [Example 310]")
5
>>> recorded_result("Cn1c(=O)n(C(=O)N2CCCC2)c2cnc(-c3cccnc3F)nc21 [compound 209]")
103
>>> recorded_result("Cn1c(=O)n(C(=O)N2CCCC2)c2cnc(-c3ccc(C(F)(F)F)cc3)nc21 [compound 178]")
96
